target: RSV prefusion F (preF), subtype B (respiratory syncytial virus, subtype B); assay: BLI, IgG
reported-endpoint: Kd (nM)
The reply should contain only the number, in nM.

ADI-21062 (antibody, V domains shown, also called Ab 310) VH: EVQLLESGGGLVKPGGSLRLSCAASGFTFSDYDMIWVRQAPGKGLEWVSSISRGSDYIYYADSLKGRFTISRDNARNSVTLQMNSLRAGDTALYFCARAELLDSGGYYLYYFDHWGQGTLVTVSS VL: DIRMTQSPSSLSASVGDRVTITCRASQIIASYVNWYQKKPGKAPKVLIYAASRLQNGVPSRFSGSGSGTEFTLTISSLQPEDFATYYCQQSYSTSFTFGQGTKVDIK : 0.827

// switching to the query binder
input: Returns the measured Kd for the input binder. Input: ADI-21050 (antibody, V domains shown) VH: QVQLVQSGAEVKKPGASVKVSCTASGYTFANNGISWVRQAPGQGLEWMGWISAYNGNTKYAQTVQGRVTLTTDTSTSTAYMELRSLTSDDTAVYYCAREMGVDAAATFDYWGQGTLVTVSS VL: EIVMTQSPLFLSVTLGQPASISCRSSQSLVYSDTNTYLTWFQQRPGQSPRRLIYKVSNRDSGVPDRFSGSGSGTYFTLKISRVEAEDIGVYYCMQAIHWPRTFGQGTKLEIK
output: 0.323
